Consider the following molecules; for each one, report its pKi.
# measured_target: human A3 receptors (hA3) (Homo sapiens)
# Construct: expressed in transfected cells; host or cells: HEK-293
# Sequence (P0DMS8 1-318): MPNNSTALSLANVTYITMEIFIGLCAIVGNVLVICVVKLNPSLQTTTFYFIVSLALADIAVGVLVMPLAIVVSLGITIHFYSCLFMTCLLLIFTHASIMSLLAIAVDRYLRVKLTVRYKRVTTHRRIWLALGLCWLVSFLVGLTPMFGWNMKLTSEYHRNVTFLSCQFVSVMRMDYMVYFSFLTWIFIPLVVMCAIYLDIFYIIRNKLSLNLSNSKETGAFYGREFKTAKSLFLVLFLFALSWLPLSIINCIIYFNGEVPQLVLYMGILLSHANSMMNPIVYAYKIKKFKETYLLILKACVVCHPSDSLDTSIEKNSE
# procedure_details: Displacement of [125I]AB-MECA binding at human A3 receptors expressed in HEK-293 cells (Table 4)
One number for each entry, as −log10 of the molar value.

Use these answered entries as a reference point.
CCCn1c(=O)c2[nH]c(-c3ccc(OCC(=O)NNC(=O)C4=C(C(=O)O)CCC4)cc3)nc2n(CCC)c1=O: 5.93
CCCn1c(=O)c2[nH]c(-c3ccc(OCC(=O)NN4C(=O)CC[C@H](NC(=O)C(F)(F)F)C4=O)cc3)nc2n(CCC)c1=O: 6.14
CCCn1c(=O)c2[nH]c(-c3ccc(OCC(=O)NN)cc3)nc2n(CCC)c1=O: 6.30
CCCn1c(=O)c2[nH]c(-c3ccc(OCC(=O)NN4C(=O)C(c5ccccc5)=C(c5ccccc5)C4=O)cc3)nc2n(CCC)c1=O: 5.46
CCCn1c(=O)c2[nH]c(-c3ccc(OCC(=O)NNC(=O)C4CC=CCC4C(=O)O)cc3)nc2n(CCC)c1=O (stereo not drawn): 5.97

I'm hoping you can list pKi for every molecule here, please.
1. CCCn1c(=O)c2[nH]c(-c3ccc(OCC(=O)NN4C(=O)CCC4=O)cc3)nc2n(CCC)c1=O
2. CCCn1c(=O)c2[nH]c(-c3ccc(OCC(=O)NNC(=O)CNC(=O)CNC(=O)OCc4ccccc4)cc3)nc2n(CCC)c1=O
3. CCCn1c(=O)c2[nH]c(-c3ccc(OCC(=O)NNC(=O)CCC(=O)O)cc3)nc2n(CCC)c1=O
4. CCCn1c(=O)c2[nH]c(-c3ccc(OCC(=O)NN4C(=O)C5=C(CCCC5)C4=O)cc3)nc2n(CCC)c1=O
5. CCCn1c(=O)c2[nH]c(-c3ccc(OCC(=O)NN4C(=O)[C@H]5CC=CC[C@H]5C4=O)cc3)nc2n(CCC)c1=O
6. CCCn1c(=O)c2[nH]c(-c3ccc(OCC(=O)NN4C(=O)C=C(c5ccccc5)C4=O)cc3)nc2n(CCC)c1=O
7. CCCn1c(=O)c2[nH]c(-c3ccc(OCC(=O)NN4C(=O)C=C(C)C4=O)cc3)nc2n(CCC)c1=O

1: 6.12; 2: 6.49; 3: 6.76; 4: 6.61; 5: 6.43; 6: 6.13; 7: 6.26
